experiment: Residual parent lipid levels in the liver of mice (hEPO mRNA LNP); assay type: in vivo; conditions: CD-1 mice
assay_endpoint: Parent Lipid Remaining at 24 h (nmol/g liver tissue)
Answers are plain numbers, in nmol/g liver tissue.

Would you please look over these solved cases?
• CCCCCCCCC(CCCCCCCC)OC(=O)CCCCCCCN(CCCCCCCC(=O)OCCC(CCCCC)CCCCC)CCCNc1c(NC)c(=O)c1=O = 66
• CCCCCCCCC(CCCCCCCC)COC(=O)CCCCCN(CCCCCCCC(=O)OC(CC)CCCCCCCC)CCCNc1c(NC)c(=O)c1=O (stereo not shown) = 56
• CCCCCCCCC(CCCCCCCC)OC(=O)CCCCCCCN(CCCCCCCC(=O)OCCC(CCCCCC)CCCCCC)CCCNc1c(NC)c(=O)c1=O = 141
• CCCCCCCCC(CCCCCCCC)OC(=O)CCCCCCCN(CCCCCCCC(=O)OCCC(CCCC)CCCC)CCCNc1c(NC)c(=O)c1=O = 27
• CCCCCC(CCCCC)OC(=O)CCCCCCCN(CCCCCCCC(=O)OCCC(CCC)CCC)CCCNc1c(NC)c(=O)c1=O = 0.9

Task: Read the entry "CCCCCCCCC(CCCCCCCC)OC(=O)CCCCCCCN(CCO)CCCCCCCC(=O)OCCCC(CCCCC)CCCCC" and write its reported Parent Lipid Remaining at 24 h.
Output: 2

----------
assay: Residual parent lipid levels in the liver of mice (hEPO mRNA LNP); assay type: in vivo; details: CD-1 mice
assay_endpoint: Parent Lipid Remaining at 24 h (nmol/g liver tissue)
One number for each entry, in nmol/g liver tissue.

- CCCCCCCCC(CCCCCCCC)OC(=O)CCCCCCCN(CCCCCCCC(=O)OCCCC(CCCCC)CCCCC)CCCNc1c(NC)c(=O)c1=O: 69
- CCCCCCCCC(CCCCCCCC)OC(=O)CCCCCCCN(CCCCCCCC(=O)OCC(CCCCCCC)C(C)C)CCCNc1c(NC)c(=O)c1=O (stereo not shown): 73
- CCCCCCC(CCCCCC)CCOC(=O)CCCCCCCN(CCO)CCCCCCCC(=O)OCCC(CCCCCC)CCCCCC: 24

Your task in this section: give Parent Lipid Remaining at 24 h for each listed record.
1. CCCCCCCCC(CCCCCC)COC(=O)CCCCCN(CCCCCCCC(=O)OC(CC)CCCCCCCC)CCCNc1c(NC)c(=O)c1=O (stereo not shown)
2. CCCCC(CCCC)CCOC(=O)CCCCCCCN(CCCCCCCC(=O)OC(CCCC)CCCC)CCCNc1c(NC)c(=O)c1=O
3. CCCCCCCCC(CCCCCCCC)OC(=O)CCCCCCCN(CCCCCCCC(=O)OCCC1CCC(CC)C1)CCCNc1c(NC)c(=O)c1=O (stereo not shown)

Output:
51
1.8
3

----------
test: Residual parent lipid levels in the liver of mice (hEPO mRNA LNP); type: in vivo; conditions: CD-1 mice
assay_endpoint: Parent Lipid Remaining at 24 h (nmol/g liver tissue)
Numbers only, in nmol/g liver tissue.

Observe how each entry below is paired with its result.
- CCCCCCCCC(CCCCCCCC)OC(=O)CCCCCCCN(CCCCCCCC(=O)OCCC(CCCCCC)C(C)C)CCCNc1c(NC)c(=O)c1=O (centres unmarked): 35
- CCCCCC(CCCCC)CCOC(=O)CCCCCCCN(CCO)CCCCCCCC(=O)OCCC(CCCCC)CCCCC: 0.1
- CCCCCC(CCCCC)CCCOC(=O)CCCCCCCN(CCCCCCCC(=O)OCCCC(CCCCC)CCCCC)CCCNc1c(NC)c(=O)c1=O: 12
- CCCCCCC(CCCCCC)CCOC(=O)CCCCCCCN(CCCCCCCC(=O)OCCC(CCCCCC)CCCCCC)CCCNc1c(NC)c(=O)c1=O: 58

Here are 8 molecules. What values of Parent Lipid Remaining at 24 h were reported for them?
1. CCCCCC(CCCCC)CCCOC(=O)CCCCCCCN(CCO)CCCCCCCC(=O)OCCCC(CCCCC)CCCCC
2. CCCCCCCCC(CCCCCCCC)OC(=O)CCCCCCCN(CCO)CCCCCCCC(=O)OCCC(CCCCC)CCCCC
3. CCCCCC(CCCCC)CCOC(=O)CCCCCCCN(CCCCCCCC(=O)OCCC(CCCCC)CCCCC)CCCNc1c(NC)c(=O)c1=O
4. CCCCCCCCC(CCCCCCCC)OC(=O)CCCCCCCN(CCCCCCCC(=O)OCCC1CCC(CCC)CC1)CCCNc1c(NC)c(=O)c1=O (centres unmarked)
5. CCCCCCCCC(CCCCCCCC)OC(=O)CCCCCCCN(CCCCCCCC(=O)OCC(CCCCC)CCCCCCC)CCCNc1c(NC)c(=O)c1=O (centres unmarked)
6. CCCCCCCCC(CCCCCCCC)OC(=O)CCCCCCCN(CCCCCCCC(=O)OCCC(CCCC)CCCCCC)CCCNc1c(NC)c(=O)c1=O (centres unmarked)
7. CCCCCCC(CCCCCC)OC(=O)CCCCCCCN(CCCCCCCC(=O)OCCC(CCC)CCC)CCCNc1c(NC)c(=O)c1=O
8. CCCCCC(CCCCC)CCOC(=O)CCCCCCCN(CCCCCCCC(=O)OC(CCCC)CCCC)CCCNc1c(NC)c(=O)c1=O

Output:
1: 0.5; 2: 3; 3: 25; 4: 4; 5: 77; 6: 65; 7: 4.9; 8: 15

Task: Assign Parent Lipid Remaining at 24 h to the following record: "CCCCCC(CCCCC)CCOC(=O)CCCCCCCN(CCCCCCCC(=O)OC(CCCCC)CCCCC)CCCNc1c(NC)c(=O)c1=O"
Output: 12
